Biological target: GFP (UniProt P42212)
Settings: RNA transcript; printed sequence is the DNA template strand (RNA is its reverse complement); microcolumn qPCR recovery fit by simulation; non-specific background binding
pKd: −log10 of the molar value.
valueType: pKd

# pKd lookup, item AAGCUUCGUCAAGUCUGCAGUGAANNNNNNNNNNNNNNNNNNNNNNNNNNNNNNNNNNNNNNNNNNNNNNNNNNNNNNNNNNNNNNNNNNNNNNGAAUUCGUAGAUGUGGAUCCAUUCCC [N70 random RNA library]
< 5.00
